- SYSTEM_TESTED: c-Src SH2;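 also: peptide library displayed on the E. coli surface as eCPX fusions, selected cells deep-sequenced, score is each peptide's frequency after selection divided by its frequency in the input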
- ASSAY: SH2 binding enrichment of the phosphorylated peptide, bacterial display (enrichment ratio); higher = better substrate or ligand; peptides without Tyr show the background
MEASUREMENT_KIND: SH2 binding enrichment

Use the examples below as a reference point.
>>> print(df.to_string())
                   sequence_chain  system_tested        measurement_kind  measured_result
0  PIPAAYNKYDQ [CDC73_Y290_R292K]      c-Src SH2  SH2 binding enrichment            0.478
1         KSVLVYRNGDP [DCDC2_Y22]      c-Src SH2  SH2 binding enrichment            0.622
2    KFVVVYFREID [IL17RB_Y447_YF]      c-Src SH2  SH2 binding enrichment             1.43
3  RHPLDYLRQYP [NARS2_Y138_E137D]      c-Src SH2  SH2 binding enrichment            0.894
4       PGLRGYPGLSG [COL4A2_Y306]      c-Src SH2  SH2 binding enrichment            0.383
5         DQVEQYKKELE [LMNA_Y259]      c-Src SH2  SH2 binding enrichment            0.841
6   QTWKTYVRHQQ [SFI1_Y164_Q167H]      c-Src SH2  SH2 binding enrichment            0.784
7   MKALGYFAVGT [OPA1_Y498_V502G]      c-Src SH2  SH2 binding enrichment            0.543

P: GKTQQYECKWF [BCR_Y751_D752E_YF]
Q: MILSAYALGGL [CPS1_Y590_R587L]
## Input Lower SH2 binding enrichment: P or Q ? Please reply using the label of the selected record.
## Output P
(P: 0.488, Q: 0.708)
